// data source = PubChem BioAssay (NCI)

- Test system: SF-268 CNS
- procedureDetails: NCI-60 one-dose screen, 48 h (100 = growth as untreated, 0 = no growth, -100 = all killed)
- setupConditions: 10 µM unless noted
- Experimental: Cells are grown in 96 well plates and exposed to the test compound for 48 hours. Compounds are tested at a single concentration, which is 10^-5 M for most compounds. The reported endpoint is percent growth (GI% or GIPRCNT), where numbers from 0 - 100% represent growth inhibition, and numbers from -100% - 0 represent cell death. For example, a value of 40 represents 60% growth inhibition. A value of 0 means no net growth occurred over the course of the experiment. […]
About 83,000 compounds went through this panel and 20% of them were active in at least one assay; those are over-represented in the sample as a whole.
growth of 80% or higher: 1.0. Under 80%: 0.0.

Cc1nc2c(nnn2-c2ccccc2)c2nc(-c3ccc(Cl)cc3)oc(=O)c12 : 1.0
COc1ccc2c(c1)cn1c3ccc(O)cc3[nH]c(=O)c21 : 0.0
Cc1ccc(CC(=O)O)c(C)c1 : 1.0

Attention now shifts to the item below.
# bool: growth of "COC(=O)c1ccc2[nH]c(O)c(C(=Nc3ccc(N(C)C(=O)CN4CCN(C)CC4)cc3)c3ccc4c(c3)OCO4)c2c1" >= 80%
0.0

====

Catalogue of growth readings, one per entry.
- Test system: HCT-15 colon
- procedureDetails: NCI-60 one-dose screen, 48 h (100 = growth as untreated, 0 = no growth, -100 = all killed)
- setupConditions: 10 µM unless noted
Compounds without any hit were thinned out: in the full panel of roughly 83,000, 20% have a hit. Activity calls are given as the source filed them. The calls were made as follows: active = growth percent below 10; inactive = the rest.

COc1ccc(-c2nc(N)n(C(=S)Nc3ccccc3)n2)cc1 : 102% (inactive)
Cc1cc2c(-c3nc4ccccc4[nH]3)c(O)c(O)cc2c(O)c1-c1c(C)cc2c(-c3nc4ccccc4[nH]3)c(O)c(O)cc2c1O : 11.9% (inactive)

Now, please, on to the next molecule.
Item CC(=O)N1N=C(c2ccc(Cl)cc2)CC1c1cn(-c2ccccc2)nc1-c1ccc([N+](=O)[O-])cc1 (stereo not drawn) : provide growth
92.6% (inactive)

====

Catalogue of growth readings, one per entry.
- Tested on: OVCAR-3 ovarian
- procedureDetails: NCI-60 one-dose screen, 48 h (100 = growth as untreated, 0 = no growth, -100 = all killed)
- setupConditions: 10 µM unless noted
The panel holds about 83,000 compounds, 20% with a hit somewhere; the sample as a whole holds those more often.
Kindly provide the numeric value in % only, without the unit symbol.

O=C1N/C(=N\c2nnc(-c3ccc(O)cc3)s2)S/C1=C\c1ccccc1O : 93.2
N=C(N)c1ccc(-c2ccc(-c3cc(Cl)cc(Cl)c3)s2)cc1 : -83.4
c1ccc(Nc2ncc3c(n2)-c2cccn2CC3)cc1 : 82.7
Clc1ccc(I)c2ccccc12 : 108
O=C1C(=O)c2ccccc2C(O)=C1CCCc1ccc(C2CCCC2)cc1 : 39.3
CCOC(=O)c1c(C)oc2ncnc(Nc3ccc(NC(=O)Nc4ccc(CC)cc4)cc3)c12 : 118

Item "O=C(CN1C(=O)NC(c2ccccc2)(c2ccccc2)C1=O)c1ccc(N2CCCC2)cc1" : provide growth
103

Item "O=C(/C=C\c1ccccc1Cl)c1ccccc1" : provide growth
99.5

Item "COc1ccc(-c2cn3ccnc3c(-c3ccc4ncn(C5CCCCC5)c4c3)n2)cc1" : provide growth
-26.5

Item "CCC(C)(CC)c1ccc(O)c(C)c1" : provide growth
116

Item Nc1nc2c(c3ncncc13)C(c1cccc(C(F)(F)F)c1)Cc1ncncc1-2 (configuration not stated) : provide growth
2.43

Item "CCCCN(CCCC)c1ccc(C(=O)O)cc1" : provide growth
106

====

- Tested on: MCF7 breast
- procedureDetails: NCI-60 one-dose screen, 48 h
- setupConditions: 10 µM unless noted
This is part of a sample that, as a whole, favours compounds with a hit. Of some 83,000 tested, about 20% had one in any assay. Activity calls are given as the source filed them. The calls were made as follows: active = growth percent below 10; inactive = the rest.
Respond using exactly one of the listed classes: active, inactive

COc1cc(OC)c(NC(=O)n2ncc3cc(Nc4ncnc5ccccc45)ccc32)cc1Cl : inactive
COc1ccccc1CNCCCN1C(=O)c2ccc3c4c(ccc(c24)C1=O)C(=O)N(CCCNCc1ccccc1OC)C3=O : active
COc1ccc(-c2nc(Nc3nc4ccccc4[nH]3)nc(N)c2C#N)cc1 : inactive

Attention now shifts to the item below.
Check the results log: what was the call for "COc1ccc2cn3c4ccc(O)cc4[nH]c(=O)c3c2c1" ?
active

====

- Test system: HCT-15 colon
- procedureDetails: NCI-60 one-dose screen, 48 h (100 = growth as untreated, 0 = no growth, -100 = all killed)
- setupConditions: 10 µM unless noted
Compounds without any hit were thinned out: in the full panel of roughly 83,000, 20% have a hit.
Each record's growth is compared with bucket 1 (below 10%), bucket 2 (10% to below 80%), bucket 3 (80% or more) to give its class.

Check out these entries, answers already filled in.
COc1ccc(C(=O)NCCNc2nccc(-c3c(-c4ccc(F)cc4)nc4sccn34)n2)cc1 : bucket 2
Nc1cc(N)c2nc(-c3ccccc3)c(NCCc3ccc(Cl)c(Cl)c3)nc2c1 : bucket 1
COc1cc(-c2c3c(cn2CCN2CCCCC2)-c2oncc2CC3)cc(OC)c1OC : bucket 3

Attention now shifts to the item below.
Just checking, what class would you give "COc1cc2ncnc(Nc3ccc4c(cnn4C(=O)Nc4ccccc4)c3)c2cc1OC" here?
bucket 3

====

- System: A549/ATCC NSCLC
- procedureDetails: NCI-60 one-dose screen, 48 h
- setupConditions: 10 µM unless noted
The panel holds about 83,000 compounds, 20% with a hit somewhere; the sample as a whole holds those more often. The source made the active and inactive calls. How the source made its calls: active means growth percent below 10; inactive means the rest.
Respond using exactly one of the listed classes: active, inactive

Check the results log: what was the call for "C#CCCCCCCC[C@@H]1OC(=O)[C@H]([C@@H](C)CC)NC(=O)[C@H]([C@@H](C)CC)NC(=O)CC(=O)[C@@H]1C" ?
inactive

====

Catalogue of growth readings, one per entry.
- Tested on: MCF7 breast
- procedureDetails: NCI-60 one-dose screen, 48 h (100 = growth as untreated, 0 = no growth, -100 = all killed)
- setupConditions: 10 µM unless noted
About 83,000 compounds went through this panel and 20% of them were active in at least one assay; those are over-represented in the sample as a whole.
Kindly provide the numeric value in % only, without the unit symbol.

Solved entries (count: 2):
CCC(CCCN1C(=O)c2ccccc2C1=O)Nc1cc(OC)cc2cccnc12 (stereo not drawn) : 20.8
COc1cc(-c2nn(-c3ccc(NC(=O)c4ccc(Cl)c(Cl)c4)cc3)cc2-c2ccncc2)ccc1Cl : 60.6

Now, please, on to the next compound.
Item "O=C(c1ccccc1)c1ccccc1-c1ccccc1" : provide growth
18.1

====

Catalogue of growth readings, one per entry.
- System: HCT-15 colon
- procedureDetails: NCI-60 one-dose screen, 48 h (100 = growth as untreated, 0 = no growth, -100 = all killed)
- setupConditions: 10 µM unless noted
This is part of a sample that, as a whole, favours compounds with a hit. Of some 83,000 tested, about 20% had one in any assay. Active and inactive are the calls of the source. The calls were made as follows: active = growth percent below 10; inactive = the rest.

Solved entries (count: 3):
CC[C@H](Nc1ncnc2nc[nH]c12)c1nc2cccc(NCc3ccc(C(=O)NO)nc3)c2c(=O)n1-c1ccccc1 : 97.1% (inactive)
CC1(c2ccc(Br)cc2)NC(=O)NC1=O (centres undefined) : 106% (inactive)
Nc1cc2c(cc1Br)[nH]c(=O)c1ccccc12 : 58.3% (inactive)

Now, please, on to the next compound.
Item "CCCC[N+](C)(N)CCCC" : provide growth
98% (inactive)

====

- Test system: CAKI-1 renal
- procedureDetails: NCI-60 one-dose screen, 48 h
- setupConditions: 10 µM unless noted
The panel holds about 83,000 compounds, 20% with a hit somewhere; the sample as a whole holds those more often. Active and inactive are the calls of the source. Rule for the calls: active = growth percent below 10; inactive = the rest.
Respond using exactly one of the listed classes: 1 (yes) for active, 0 (no) for inactive

CCCCCCCCc1ccc(CCC(N)(CO)CO)cc1 : 0 (no)

Check the results log: what was the call for CC1(C)CC(=O)C2=C(C1)Oc1nc(N)c(C#N)c(N)c1C2c1ccc(F)cc1 (stereo not given) ?
0 (no)

Check the results log: what was the call for "COC(=O)[C@H](Cc1cn(C)cn1)NC(=O)[C@@H](NC(=O)Nc1cc(C(F)(F)F)cc(C(F)(F)F)c1)C(C)(C)C" ?
0 (no)

Check the results log: what was the call for "CCOC(=O)NNc1[nH]c(-c2ccc(OC)cc2)cc1C#N" ?
0 (no)

Check the results log: what was the call for COc1ccc(C2C3(C#N)C(N)=NC(=C(C#N)C#N)C23C#N)cc1OC (stereo not given) ?
0 (no)

Check the results log: what was the call for "O=C(Nn1cnc2ccccc21)N1CCCC1" ?
0 (no)

Check the results log: what was the call for "CCCCCCCCCC[N+](C)(C)N" ?
0 (no)

Check the results log: what was the call for "CCCCCCCCCCCCCCCCNC(=S)N/N=C/c1ccc(OC)cc1" ?
0 (no)

Check the results log: what was the call for "COc1cc(-c2nn(-c3ccc(NC(=O)c4cc(Cl)cc(Cl)c4)cc3)cc2-c2ccncc2)ccc1Cl" ?
0 (no)

Check the results log: what was the call for "N=c1c2c(=O)n3c(nc2nc2sc4ccc(Cl)cc4n12)-c1ccccc1Sc1ccccc1-3" ?
1 (yes)

Check the results log: what was the call for "COc1cc(Cn2ccc3c2-c2oncc2CC3)cc(OC)c1" ?
0 (no)

Check the results log: what was the call for "COc1cc(-c2nc3c(c(C)nc4c3nnn4-c3ccccc3)c(=O)o2)cc(OC)c1OC" ?
0 (no)

Check the results log: what was the call for "O=C(NCCCl)Nc1nccnc1OCc1ccc(F)cc1" ?
0 (no)

Check the results log: what was the call for "COC(=O)c1ccc2[nH]c(O)c(C(=Nc3ccc(N(C)C(=O)CN4CCN(C)CC4)cc3)c3ccc(N)cc3)c2c1" ?
0 (no)

Check the results log: what was the call for CC(C)OCC1CO1 (stereo not given) ?
0 (no)
